target: Carbonic anhydrase 13 (Homo sapiens); experiment: Binding affinity to human recombinant carbonic anhydrase 13 by thermal shift assay
Sequence (Q8N1Q1 whole entry): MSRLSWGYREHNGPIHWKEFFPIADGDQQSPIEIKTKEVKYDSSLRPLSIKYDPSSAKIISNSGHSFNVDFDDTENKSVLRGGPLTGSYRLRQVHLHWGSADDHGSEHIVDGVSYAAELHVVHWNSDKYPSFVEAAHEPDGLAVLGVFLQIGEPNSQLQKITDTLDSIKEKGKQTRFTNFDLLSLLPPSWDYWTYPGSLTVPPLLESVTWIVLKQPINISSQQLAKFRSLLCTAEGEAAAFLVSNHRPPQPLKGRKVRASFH
pKd: −log10 of the molar value.
measuredEndpoint: pKd

{"columns": ["compound", "pKd"],
 "data": [
  ["COc1ncnc(NCCc2ccc(S(N)(=O)=O)cc2)c1[N+](=O)[O-]", 6.89]
]}

A. CSc1nc(NCc2ccccc2)c(C#N)c(Nc2ccc(S(N)(=O)=O)cc2)n1
B. CSc1nc(Cl)c(C#N)c(NCCc2ccc(S(N)(=O)=O)cc2)n1
# min-compare on pKd between A and B Could you answer with the label of the item you picked?
A

A. CSc1nc(Cl)c(C=O)c(NCCc2ccc(S(N)(=O)=O)cc2)n1
B. NS(=O)(=O)C(F)(F)F [TRIFLUOROMETHANESULFONAMIDE]
Sorting by pKd in descending order, would A or B appear first? Could you answer with the label of the item you picked?
B
(B: 7.70, A: 7.48)

P. NS(=O)(=O)c1ccc(CCNc2ncnc(NCc3ccccc3)c2[N+](=O)[O-])cc1
Q. NS(=O)(=O)c1ccc(CNc2nc[nH]c(=O)c2[N+](=O)[O-])cc1
# min-compare on pKd between P and Q Could you answer with the label of the item you picked?
P
